The measurements presented in this section are drawn from ChEMBL document CHEMBL3758166.

- assaySystem: DNA gyrase (Staphylococcus aureus, UniProt P0A0K8+P20831)
- testDetails: Inhibition of Staphylococcus aureus DNA gyrase ATPase activity using pBR322 DNA as substrate after 30 mins by fluorescence polarization assay
propertyMeasured: IC50 (nM)

{"columns": ["smilesStr", "assaySystem", "IC50 / nM"],
 "data": [
  ["O=c1cc(-c2ccccc2)c2c(-c3cnc(-c4cccnc4)s3)n[nH]c2[nH]1", "DNA gyrase (Staphylococcus aureus, UniProt P0A0K8+P20831)", 1320]
]}

(1) O=c1ccc2c(-c3cnc(-c4cccnc4)s3)n[nH]c2[nH]1
(2) Cc1cc(=O)[nH]c2[nH]nc(-c3cnc(-c4cccnc4)s3)c12
Hi, I'm comparing two records. Which one has the lower IC50, 1 or 2 ? Label of pick, please.
1

----------
- assaySystem: DNA gyrase subunit B (Staphylococcus aureus)
- testDetails: Binding affinity to full length Staphylococcus aureus GyrB by STD-NMR spectroscopic analysis
propertyMeasured: IC50 (µM)

Before answering, review these 3 worked examples.
{"columns": ["compound", "IC50 / µM"],
 "data": [
  ["O=c1cc(-c2ccccc2)c2c(-c3cnc(-c4cccnc4)s3)n[nH]c2[nH]1", 50],
  ["Cc1n[nH]c2c1C(c1ccccc1F)CC(=O)N2 (centres undefined)", 840],
  ["O=c1ccc2c(-c3cnc(-c4cccnc4)s3)n[nH]c2[nH]1", 50]
]}

(I) Nc1nc(O)cc(-c2ccccc2)n1
(II) O=C1Nc2ccccc2/C1=C\c1cccnc1
Which gives the smaller IC50 number: I or II ? Indicate which entry you chose by stating its label.
I
(I: 50 µM, II: 840 µM)

(a) CCCC(=O)Nc1sccc1C(N)=O
(b) Cc1cc(O)[nH]c2nnc(-c3ccccc3)c1-2
Dear colleague, could you let me know whether a or b has the lower recorded IC50? Thanks. Please respond with the label that marks your chosen entry.
a
